System: S. aureus RN4220
Test: growth inhibition call (relative growth <= 0.2)
Conditions: 50 µM
Screen size: about 39,000 compounds; about 500 (1.3%) were called active. Shown is part of a subset that was picked to be rich in actives.
Outcome codes: True (active), False (inactive)

1) O=C(/C=c1/nc2c([nH]c1=O)=NON2)c1ccccc1	True
2) CN(C)[C@@H]1C(=O)[C@@H](C(=O)NCNCCCC[C@H](N)C(=O)O)C(=O)[C@@]2(O)C(=O)[C@@H]3C(=O)c4c(O)cccc4[C@@](C)(O)[C@H]3C[C@@H]12	False
3) COc1ccc(S(=O)(=O)N[C@H]2CC[C@H](CCNC(=O)CN3CCOCC3)O[C@@H]2CO)cc1	False
4) Cc1cc(OCCCS(C)(=O)=O)cc(C)c1-c1cccc(COc2ccc3c(c2)OC[C@H]3CC(=O)O)c1	True
5) C[C@@H]1CCCCO[C@H](CN(C)S(=O)(=O)c2cccs2)[C@@H](C)CN([C@@H](C)CO)C(=O)c2cc(NC(=O)CCC(F)(F)F)ccc2O1	False
